# Measurement Protocol: Tmax in male Sprague-Dawley rat brain at 3 mg/kg, iv measured after 480 mins by LC-ESI/MS-MS analysis
# Type: ADME, organism-based
Measured Quantity: Tmax (min)
Response body: numeric value in min, unit text excluded.

Briefly, Tmax measured for Cc1ccc2nc(-c3ccc(F)cc3)c(CC(=O)N3CCCC3)n2c1.O=C(O)C(O)C(O)C(=O)O : 5

----------
# Measurement Protocol: Terminal half-life in male Sprague-Dawley rat plasma at 3 mg/kg, iv measured after 480 mins by LC-ESI/MS-MS analysis
# Assay type: ADME, organism-based
# Conditions: read-out: beta t1/2
Measured Quantity: half-life (min)
Use min as the unit, but write only the number.

Just so you know, measured half-life for Cc1ccc2nc(-c3ccc(F)cc3)c(CC(=O)N3CCCC3)n2c1.O=C(O)C(O)C(O)C(=O)O came out at 47.8

----------
# Measurement Protocol: Tmax in male Sprague-Dawley rat plasma at 3 mg/kg, ip measured after 480 mins by LC-ESI/MS-MS analysis
# Format: ADME, organism-based
Measured Quantity: Tmax (min)
Please give a number only; it is taken to be in min.

// Tmax value for Cc1ccc2nc(-c3ccc(F)cc3)c(CC(=O)N3CCCC3)n2c1.O=C(O)C(O)C(O)C(=O)O : 5

----------
# Measurement Protocol: Cmax in male Sprague-Dawley rat brain at 3 mg/kg, iv measured after 480 mins by LC-ESI/MS-MS analysis
# Format: ADME, organism-based
Measured Quantity: Cmax

Form: compound = Cc1ccc2nc(-c3ccc(F)cc3)c(CC(=O)N3CCCC3)n2c1.O=C(O)C(O)C(O)C(=O)O ; Cmax = 445 ng/g
